Data provenance is ChEMBL document CHEMBL3988442.

Provide the recorded Percent Effect for the entries that follow.
System: Wolbachia pipientis
Assay: Anti-Wolbachia Cell-Based Screen
Assay type: functional
Design: scale not given: in the data most compounds retested in dose-response had high values
Details: 5 µM
In all, about 48,000 compounds went through this assay and about 13,000 (27%) showed an effect of 50% or more. The list shows a part of the results.
Give bare numbers, in %.

# example entries with known answers
1. Cc1ccc(NC(=O)Cn2cc(I)cn2)cc1 = 92.57
2. COc1ccc(C(=O)NCCCNc2ncccn2)c(OC)c1 = -2.256

Query string: What Percent Effect value was documented for this molecule, CC(C#N)(NC(=O)Cn1cc(I)cn1)C1CC1 (stereo not drawn) ?
Result string: 6.618

---

System: Wolbachia pipientis
Test: Anti-Wolbachia Cell-Based Screen
Assay type: functional
Parameters: scale not given: in the data most compounds retested in dose-response had high values
Details: 5 µM
About 13,000 (27%) of roughly 48,000 compounds showed an effect of 50% or more. This is one part of the list.
measure name: Percent Effect (%)
Numbers only, in %.

For orientation, consider the following solved cases.
1. c1cc(CN2CCOC[C@H]2c2nc(-c3ccncc3)c[nH]2)ccn1 = -7.2
2. CCC(=O)N(CC)CCc1nccs1 = -20.38
3. CCC(=O)c1cccc(S(=O)(=O)NC(C)C#N)c1 (stereo not given) = -8.003

Quick request: Percent Effect for each listed item, please.
1. CN1[C@@H](CCC(=O)NCc2ccc(F)cc2)CNC(=O)[C@H]2NCC[C@H]21
2. COCC(=O)N1Cc2nccn2CC(Cn2ncccc2=O)C1 (stereo not given)

Result string:
1. 3.15
2. 110.2

---

Test system: Wolbachia pipientis
Assay: Anti-Wolbachia Cell-Based Screen
Format: functional
Parameters: scale not given: in the data most compounds retested in dose-response had high values
Details: 5 µM
Screen size: about 48,000 compounds; about 13,000 (27%) showed an effect of 50% or more. This is one part of the list.
measure name: Percent Effect (%)
One number for each entry, in %.

1. Cc1cc(C(=O)N2CCOC(c3ccc(Cl)c(Cl)c3)C2)[nH]n1 (centres undefined) = -12.35
2. CC(C)(C)c1cc(C(=O)N2CCC(c3cnccn3)CC2)[nH]n1 = 96.1
3. COc1ncccc1NC(=O)N1CCOCC1C (centres undefined) = 13.85
4. CCn1cc(S(=O)(=O)N2CCCSc3ccccc32)cn1 = -3.262
5. CSc1ncc(CNC(C)c2cnn(-c3ccccc3)c2C)cn1 (centres undefined) = 31.2
6. CC(CCN1CCC(n2cc(CCO)nn2)CC1)c1ccccc1 (centres undefined) = 92.59
7. CC(=O)Nc1ccc(Oc2cccc(CN3CCCC3)c2)cc1 = -8.686
8. CNCc1cn(C2CCN(CCC(C)c3ccccc3)CC2)nn1 (centres undefined) = 95.9

Please go through the list and note Percent Effect for each compound.
1. Cc1nsc(N2CCCN(c3nc(C4CC4)ns3)CC2)n1
2. CSC(C)CCN1CCC(n2cc(C3CCCCC3)nn2)CC1 (centres undefined)
3. Cn1cnc2c1C(COCC1CCOCC1)CN(c1ncccn1)C2.O=C(O)C(F)(F)F.O=C(O)C(F)(F)F (centres undefined)
4. COc1cccc(N2CCC(CNC(=O)N(C)Cc3ccco3)C2)c1 (centres undefined)
5. Cc1cccc(CN2CCC(n3cc(CCO)nn3)CC2)c1C

Result string:
[3.492, -13.53, -12.76, -2.761, 4.105]

// each listed compound needs a value for Percent Effect
1. Cc1nc(-c2cccs2)ccc1C(=O)N1CCN(CCO)CC1
2. Cc1ccc(N2Cc3nc(=O)[nH]n3C2=O)cc1
3. CC(C)(Oc1ccc2c(c1)CCCC2=O)C(=O)NCc1ccco1
4. CN1CCN(Cc2noc(-c3cc(-c4ccc(F)cc4)n[nH]3)n2)CC1
5. CCOc1ccc(N(CCC#N)C(=O)c2ccnc(SC)c2)cc1
6. CCCN(CC1CC1)S(=O)(=O)c1ccc(NC(C)=O)cc1
7. CC(C)CN1CCCC1c1ccc(C(=O)Nc2ccc3[nH]nnc3c2)s1 (centres undefined)

Result string:
-3.936
-1.797
-1.632
-13.75
9.969
9.5
0.6901

---

System: Wolbachia pipientis
Test: Anti-Wolbachia Cell-Based Screen
Format: functional
Design: scale not given: in the data most compounds retested in dose-response had high values
Details: 5 µM
In all, about 48,000 compounds went through this assay and about 13,000 (27%) showed an effect of 50% or more. The list shows a part of the results.
Kindly supply the reported Percent Effect values for the records listed here.
Answers are plain numbers, in %.

Here's what some known entries look like.
1) O=C(CN(Cc1ccco1)C1CC1)N1CCCCCC1 = 130.6
2) CC1=C(C#N)C(=O)NC(=O)/C1=C\c1c(C)nn(-c2ccc(C)cc2)c1O = 117.9

Please state Percent Effect for every compound in the list that follows.
1. Cc1cccc(CN2CCCC2c2cccc(CCC(=O)O)n2)c1 (stereo unspecified)
2. CC(=O)N1CC[C@H]2[C@H](C[C@@H](CN3CCCC3)N2c2nccs2)C1.O=C(O)C(F)(F)F.O=C(O)C(F)(F)F

Result string:
1: 96.42; 2: 95.98

// for each compound below, give its Percent Effect
1. c1ccc(-c2cnc(CNC3CCCN(c4cccnn4)C3)o2)cc1 (stereo unspecified)
2. COc1ccc(CNCC(C)Oc2ccccn2)cc1Br.Cl (stereo unspecified)

Result string:
1. -8.343
2. 9.774

# per-item lookup of Percent Effect; items listed below
1. O=C(O)CCc1cccc(C2CCCN2Cc2ccc(F)c(F)c2)n1 (stereo unspecified)
2. CCC(=O)N1CC[C@H]2[C@H](C[C@@H](CN3CCCC3)N2c2nccs2)C1.O=C(O)C(F)(F)F.O=C(O)C(F)(F)F
3. CCC(Nc1nc(CCN)nc2ccccc12)c1cc(C)ccn1 (stereo unspecified)

Result string:
1: -6.193; 2: 104; 3: 5.857

// each listed compound needs a value for Percent Effect
1. CCCOCC(=O)NS(=O)(=O)c1ccc2c(c1)OCCCO2
2. O=C(CN(Cc1ccco1)C1CC1)Nc1ccc(Br)cn1

Result string:
[-2.018, 5.807]

---

Test system: Wolbachia pipientis
Assay: Anti-Wolbachia Cell-Based Screen
Format: functional
Parameters: scale not given: in the data most compounds retested in dose-response had high values
Conditions: 5 µM
The whole screen tested about 48,000 compounds, of which about 13,000 (27%) showed an effect of 50% or more. Some of the results follow.
measure name: Percent Effect

Below: 6 compounds and their reported Percent Effect.
1) Cc1oc(-c2ccsc2)nc1CNCCn1cccn1 = -19.09%
2) CC1N(C)C(=O)COC12CCN(C(=O)Cc1ccsc1)CC2 (stereo not given) = 1.71%
3) Cc1cc(C[C@@H]2CCC[C@H]2NCc2ccc(C(F)(F)F)cc2)on1.O=C(O)CC(O)(CC(=O)O)C(=O)O = 113.9%
4) Cc1cc(C[C@@H]2COC[C@@H]2NC(=O)Cn2c(=O)oc3ccccc32)on1 = -2.365%
5) COCCN1CCO[C@@H]2CN(C(=O)Cc3ccccc3)CC[C@@H]2C1.O=C(O)C(F)(F)F = 12.5%
6) CN1C(=O)[C@H]2CC[C@@H]1CN(C(=O)Nc1ccccc1C(F)(F)F)C2 = -23.74%

For the 5 compounds below, give their Percent Effect values.
1. O=C(NCCc1nccs1)C1CCCN(Cc2ccco2)C1 (stereo not given)
2. Cc1cc(C)c(CNC(=O)N2CCCC2c2ccccn2)c(=O)[nH]1 (stereo not given)
3. CN1CCOC(CNCc2coc(-c3cccs3)n2)C1 (stereo not given)
4. Cc1cc(C)c(CNC(=O)N2CCN(c3ncccn3)CC2)c(=O)[nH]1
5. COc1cccc(/C=C/CCN2CCN(S(C)(=O)=O)CC2)c1

Result string:
1. -29.34%
2. 93.91%
3. 12.46%
4. -5.06%
5. -6.634%

---

Test system: Wolbachia pipientis
Assay: Anti-Wolbachia Cell-Based Screen
Assay type: functional
Design: scale not given: in the data most compounds retested in dose-response had high values
Details: 5 µM
Hit rate of the full screen: of about 48,000 compounds, about 13,000 (27%) showed an effect of 50% or more. This is one part of the list.
Label rule, in plain words: Percent Effect of -10% and up is condition met, under -10% is condition not met.

A selection of reference data follows.
1) O=C(c1ccsc1)N1CCc2c(CNc3nccs3)n[nH]c2C1 = condition met
2) CC(C)N(CCNC(=O)N1CCCC(N(C)C)C1)C1CC1 (stereo not given) = condition met
3) O=C1[C@@H]2CN(Cc3cc4ccccc4o3)C[C@]2(C(=O)O)CN1CC1CC1 = condition not met

Now take the following compound into account.
Query string: Check the entry Cn1cc(N2CCN(c3ccc(C#N)cc3Br)CC2=O)cn1 : does Percent Effect equal or exceed -10%?
Result string: condition not met

---

What Percent Effect was measured for each of the following?
Tested on: Wolbachia pipientis
Experiment: Anti-Wolbachia Cell-Based Screen
Type: functional
Set-up: scale not given: in the data most compounds retested in dose-response had high values
Conditions: 5 µM
In all, about 48,000 compounds went through this assay and about 13,000 (27%) showed an effect of 50% or more. This is one part of the list.
Answers are plain numbers, in %.

Known results for compounds:
1) CCN(CC)c1ncc2c(c1C(=O)O)CCN(C1CCOC1)C2.O=C(O)C(F)(F)F (configuration not stated) = 12.85
2) O=C(Nc1cnccn1)[C@H]1CC[C@@H]2[C@@H](CCN2Cc2ccoc2)O1.O=C(O)C(F)(F)F = 111.7
3) Cn1cc(CN2CC[C@H]3O[C@H](C(=O)Nc4cnccn4)CC[C@H]32)cn1.O=C(O)C(F)(F)F = 123.6
4) NC(=O)C1CN(Cc2c[nH]cn2)CCN(C2CCOCC2)C1 (configuration not stated) = -9.995
5) CSCCC(=O)NCc1cc2n(n1)CCN(C(=O)N(C)C)C2 = -0.4963

Quick batch: Percent Effect for everything below.
1. CN(C)C(=O)c1cccc(Nc2cnn(C)c2)c1
2. CCSC1(CNc2ncc(Br)cn2)CCOCC1
3. COc1c(C)cnc(CN(C)C(=O)c2cccc(NC(N)=O)c2)c1C
4. O=C(c1nc(=O)[nH][nH]1)N1CCCN(CC2CCCCC2)CC1
5. CSC(C)Cc1c(-c2ccccc2)ncn1CCCNc1cccnc1 (configuration not stated)

Result string:
[-3.903, -0.7161, 7.754, 4.28, -5.851]

Dear colleague, could you please provide Percent Effect for the compounds listed below?
1. COc1ccccc1CN1C[C@@H](F)[C@@H](OCc2nc3cnccc3[nH]2)C1
2. COc1nc2c(cc1C(=O)NCCCc1csc(N)n1)CCC2
3. CN(Cc1cnccn1)C(=O)c1ccnc(OC2CCC2)c1
4. CCSCCC(=O)NCc1cc2n(n1)CCN(C(=O)N(C)C)C2
5. CN(C)C(=O)COCc1cncc2c1CCN(C1CCOCC1)C2.O=C(O)C(F)(F)F.O=C(O)C(F)(F)F
6. COCc1csc(NC(=O)NCc2ccc(C)s2)n1
7. CSCC[C@H](N)C(=O)NCc1cc2n(n1)CCCN(C(=O)C1CCC1)C2

Result string:
1. -3.752
2. -5.437
3. -12.54
4. -0.2016
5. 119.4
6. 0.0103
7. 51.59
